Hey, just so you know, these numbers are from patent US20060257938A1.

experiment: Probe fluorescence ratio response to stearic acid relative to ADIFAB2; type: binding; details: Table 5
property_measured: ΔR/DRAΔ2 SA
Please give only the number in your answer, with no unit.

# return recorded ΔR/DRAΔ2 SA for entry L2P2E11: FABP probe, substitutions M18I G31F vs SEQ ID NO: 2 (protein, listed as Rattus norvegicus, PEPTIDE (1)...(131) wild-type rat intestinal fatty acid binding protein) AFDGTWKVDRNENYEKFIEKMGINVVKRKLFAHDNLKLTITQEGNKFTVKESSNFRNIDVVFELGVDFAYSLADGTELTGTWTMEGNKLVGKFKRVDNGKELIAVREISGNELIQTYTYEGVEAKRIFKKE 0.8

Give ΔR/DRAΔ2 SA for the following molecule: L2P8A6: FABP probe, substitutions M18I G31V F55V A73V vs SEQ ID NO: 2 (protein, listed as Rattus norvegicus, PEPTIDE (1)...(131) wild-type rat intestinal fatty acid binding protein) AFDGTWKVDRNENYEKFIEKMGINVVKRKLVAHDNLKLTITQEGNKFTVKESSNVRNIDVVFELGVDFAYSLVDGTELTGTWTMEGNKLVGKFKRVDNGKELIAVREISGNELIQTYTYEGVEAKRIFKKE 0.2
